Measurement Label: melting point (°C)
Note: unit °C is implicit; provide only the numeric part.

> print(dat)
                                   compound  measurement.label  meas.value
1                          c1ccc2[nH]ccc2c1      melting point          52
2  CCCNC(=O)C(C(F)(F)F)C(F)(F)F [propanamide, 3,3,3-trifluoro-N-propyl-2-(trifluoromethyl)-]      melting point         106

Q: Return reported melting point; argument: COc1cc2nc(N3CCN(C(=O)C4COc5ccccc5O4)CC3)nc(N)c2cc1OC (stereo not given)
Result: 290

Q: What do you have for CC(O)CC(C)(C)O (stereo not given) ?
Result: -40

Q: What do you have for `Nc1cccc(-n2ccccc2=O)c1` ?
Result: 183

Q: What do you have for Nc1ccc(S(=O)(=O)Nc2ccccn2)cc1 [Sulfapyridine] ?
Result: 192

Q: What do you have for C/C=C/C(=O)N(CCCCCCC)C(C(=O)NC(C)(C)C)c1cc2ccccc2c2ccccc12 (stereo not given) [Ugi product 148B] ?
Result: 180

Q: What do you have for `C[C@H](Cc1ccc(O)c(O)c1)[C@@H](C)Cc1ccc(O)c(O)c1` ?
Result: 180

Q: What do you have for `CC(C)[N+](=O)[O-]` ?
Result: -93

Q: What do you have for `CN=C=S` ?
Result: 35

Q: What do you have for `CC(=O)/N=c1\sc(C(C)=O)nn1-c1ccc(F)cc1` ?
Result: 158

Q: What do you have for CC12CCC3C(CCC4CC(=O)CCC43C)C1CCC2O (stereo not given) [17-hydroxyandrostan-3-one] ?
Result: 121

Q: What do you have for O=C1Nc2ccc(Cl)cc2C(c2ccccc2Cl)=NC1O (stereo not given) ?
Result: 166

Q: What do you have for `Clc1cccc(Cl)c1Cl` ?
Result: 53

Q: What do you have for `Fc1ccc(-c2cc3ccccc3[nH]2)cc1` ?
Result: 189
